System: JAK1-dependent STAT6 phosphorylation in BEAS-2B human bronchial epithelial cells
Experiment: JAK1 pathway assay: IL-13 stimulated STAT6 phosphorylation in BEAS-2B cells
Format: cell-based
Details: Homo sapiens, BEAS-2B, BEAS-2B cells, IL-13 stimulation; read-out: IL-13 p-STAT6 BEAS-2B IC50
Method: JAK1 Pathway Assay in Cell Lines was Carried Out as Follows: Inhibitor potency (EC50) was determined in cell-based assays designed to measure JAK1 dependent STAT phosphorylation. […] Test compounds were serially diluted 1:2 in DMSO and then diluted 1:50 in medium just before use. […] Then, cells were stimulated with human recombinant cytokine at their respective EC90 concentrations, as previously determined for each individual lot. […]
RECORDED_METRIC: pIC50
pIC50 (log units): -log10 of the concentration in mol/L.

Solved cases below.
// lookup pIC50 for CN(C)C(=O)Cn1cc(NC(=O)c2cnn3cccnc23)c(-c2cc3c(cc2OC(F)F)CCO3)n1 [Example 109] 7.66

Entry to check: CCN(C)C(=O)Cn1cc(NC(=O)c2cnn3cccnc23)c(-c2cc3c(cc2OC(F)F)NCCO3)n1 [Example 130] 7.23

Another: Cn1cc(NC(=O)c2cnn3cccnc23)c(-c2cc3sc(C(=O)N4CCN(C(=O)OC(C)(C)C)CC4)cc3cc2OC(F)F)n1 [Example 20] 6.73

Others:
Endpoint output: pIC50 of Cn1cc(Cn2cc(NC(=O)c3cnn4cccnc34)c(-c3cc4c(cc3OC(F)F)NCCS4)n2)nn1 [Example 131] . Value? 7.52

* * *

Biological target: isolated recombinant JAK1 kinase domain (Homo sapiens (Human), UniProt P23458)
Sequence (P23458 875-1153): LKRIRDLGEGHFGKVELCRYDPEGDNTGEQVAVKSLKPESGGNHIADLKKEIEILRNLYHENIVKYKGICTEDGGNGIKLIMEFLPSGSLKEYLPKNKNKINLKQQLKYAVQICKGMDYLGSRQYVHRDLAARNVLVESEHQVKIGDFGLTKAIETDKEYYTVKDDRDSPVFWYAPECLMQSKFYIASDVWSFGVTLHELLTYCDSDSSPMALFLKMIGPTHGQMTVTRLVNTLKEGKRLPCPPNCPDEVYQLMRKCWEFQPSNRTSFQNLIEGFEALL
Test: JAK1 enzyme assay (Caliper LabChip, Ki)
Format: biochemical
RECORDED_METRIC: pKi
Please report pKi as the negative decimal logarithm of the molar concentration, giving only the number.

Previously resolved entries follow.
For CC1CSc2cc(-c3nn(CC(=O)N4CCCCC4)cc3NC(=O)c3cnn4cccnc34)c(OC(F)F)cc2N1 (single isomer, unassigned) [Example 108] , what is its reported pKi? 9.72

For NC(=O)c1cc2cc(OC(F)F)c(-c3nn(CC(=O)N4CCC(CN5CCOCC5)CC4)cc3NC(=O)c3cnn4cccnc34)cc2s1 then? 9.19

Queued: NCC1CNc2cc(OC(F)F)c(-c3n[nH]cc3NC(=O)c3cnn4cccnc34)cc2S1 (racemic) 9.48

Now try CC1(C)COc2cc(OC(F)F)c(-c3n[nH]cc3NC(=O)c3cnn4cccnc34)cc2C1=O . 9.04

Check CN1CCC(n2cc(NC(=O)c3cnn4cccnc34)c(-c3cc4c(cc3OC(F)F)NCCS4)n2)C1=O (single isomer, unassigned) [Example 126] too. 9.06

Do the same for CN1CCC[C@H]1Cn1cc(NC(=O)c2cnn3cccnc23)c(-c2cc3cn[nH]c3cc2OC(F)F)n1 please 9.32

Continuing:
GET /values?readout=pKi&item= Cn1cc(NC(=O)c2cnn3cccnc23)c(-c2cc3sc(C(=O)N4CCN(C(=O)OC(C)(C)C)CC4)cc3cc2OC(F)F)n1 8.25

Same thing, different molecule: CC1CNc2cc(OC(F)F)c(-c3nn(CC(=O)N4CC=CCC4)cc3NC(=O)c3cnn4cccnc34)cc2S1 (single isomer, unassigned) [Example 104] 9.82

Entry COc1cc2sc(C(N)=O)cc2cc1-c1n[nH]cc1NC(=O)c1cnn2cccnc12 please 8.03

# repeat for Cn1cc(NC(=O)c2cnn3cccnc23)c(-c2cc3c(cc2OC(F)F)NCC(C)(C)O3)n1 8.88

Ok, now CC1CSc2cc(-c3nn(CC(=O)N4CCCCC4)cc3NC(=O)c3cnn4cccnc34)c(OC(F)F)cc2N1 (single isomer, unassigned) [Example 107] 9.70

Same question, O=C(Nc1c[nH]nc1-c1cc2c(cc1OC(F)F)NCCS2)c1cnn2cccnc12 this time 10.05

Input CC[C@H](O)Cn1cc(NC(=O)c2cnn3cccnc23)c(-c2cc3c(cc2OC(F)F)NCCO3)n1 9.55

Repeat for the following molecule: C[C@H]1CNc2cc(OC(F)F)c(-c3nn(CC(=O)N4CCC(CN5CCOCC5)CC4)cc3NC(=O)c3cnn4cccnc34)cc2S1 9.66

* * *

Tested on: JAK1-dependent STAT6 phosphorylation in BEAS-2B human bronchial epithelial cells
Experiment: JAK1 pathway assay: IL-13 stimulated STAT6 phosphorylation in BEAS-2B cells
Format: cell-based
Settings: Homo sapiens, BEAS-2B, BEAS-2B cells, IL-13 stimulation; read-out: IL-13 p-STAT6 BEAS-2B IC50
Method: JAK1 Pathway Assay in Cell Lines was Carried Out as Follows: Inhibitor potency (EC50) was determined in cell-based assays designed to measure JAK1 dependent STAT phosphorylation. […] Test compounds were serially diluted 1:2 in DMSO and then diluted 1:50 in medium just before use. […] Then, cells were stimulated with human recombinant cytokine at their respective EC90 concentrations, as previously determined for each individual lot. […]
RECORDED_METRIC: pIC50
Lab note — pIC50 values are minus log10 of concentrations in M.

Worked cases, pIC50 given:
Look up pIC50 for this molecule: CCOC(=O)c1cc2cc(-c3n[nH]cc3NC(=O)c3cnn4cccnc34)c(OC)cc2s1 7.49

Check CC1(C)COc2cc(OC(F)F)c(-c3n[nH]cc3NC(=O)c3cnn4cccnc34)cc2C1=O too. 7.26

Next molecule: CC1CSc2cc(-c3n[nH]cc3NC(=O)c3cnn4cccnc34)c(OC(F)F)cc2N1 (racemic) 8.40

***
What value of pIC50 has been recorded for this entry: O=C(Nc1cn(C2CCCNC2)nc1-c1cc2ccccc2cc1OC(F)F)c1cnn2cccnc12 (racemic) 7.51

Same question, COC(=O)Cn1cc(NC(=O)c2cnn3cccnc23)c(-c2cc3sccc3cc2OC(F)F)n1 this time 8.00

* * *

Reported pIC50 values for the following compounds.
Test system: JAK1-dependent STAT6 phosphorylation in BEAS-2B human bronchial epithelial cells
Test: JAK1 pathway assay: IL-13 stimulated STAT6 phosphorylation in BEAS-2B cells
Type: cell-based
Conditions: Homo sapiens, BEAS-2B, BEAS-2B cells, IL-13 stimulation; read-out: IL-13 p-STAT6 BEAS-2B IC50
Procedure: JAK1 Pathway Assay in Cell Lines was Carried Out as Follows: Inhibitor potency (EC50) was determined in cell-based assays designed to measure JAK1 dependent STAT phosphorylation. […] Test compounds were serially diluted 1:2 in DMSO and then diluted 1:50 in medium just before use. […] Then, cells were stimulated with human recombinant cytokine at their respective EC90 concentrations, as previously determined for each individual lot. […]
Field pIC50 (float): negative decimal logarithm of the concentration in molar.

// known answers, use as guide
I'd like to know its pIC50. The compound in question is CN1CCCC1Cn1cc(NC(=O)c2cnn3cccnc23)c(-c2cc3cn[nH]c3cc2OC(F)F)n1 (racemic) [Example 75] 7.96

Query CC1CNc2cc(OC(F)F)c(-c3nn(CC(=O)N4CCCCC4)cc3NC(=O)c3cnn4cccnc34)cc2S1 (single isomer, unassigned) [Example 101] next 7.89

Another compound to check: O=C(Nc1c[nH]nc1-c1cc2sncc2cc1OC(F)F)c1cnn2cccnc12 [Example 152] 8.40

Same again, this time with O=C(Nc1cn(CC2(O)CCOCC2)nc1-c1cc2c(cc1OC(F)F)NCCO2)c1cnn2cccnc12 [Example 134] 7.64

Next up: CN(C)C(=O)Cn1cc(NC(=O)c2cnn3cccnc23)c(-c2cc3cnsc3cc2OC(F)F)n1 [Example 143] 7.89

Next:
Which measured pIC50 value corresponds to CC(C)OC(=O)n1cc(NC(=O)c2cnn3cccnc23)c(-c2cc3c(cc2OC(F)F)NCCO3)n1 [Example 154] ? 7.66

Quick one: O=C(Nc1c[nH]nc1-c1cc2c(cc1OC(F)F)CC(CO)O2)c1cnn2cccnc12 (racemic) [Example 15] 6.84

Further, for Cn1cc(NC(=O)c2cnn3cccnc23)c(-c2cc3c(cc2OC(F)F)NC(=O)CO3)n1 [Example 137] ? 8.10

And for O=C(Nc1c[nH]nc1-c1cc2cnsc2cc1OC(F)F)c1cnn2cccnc12 [Example 153] ? 8.30

One more compound: Cn1cc(NC(=O)c2cnn3cccnc23)c(-c2cc3c(cc2OC(F)F)NCC(C)(C)O3)n1 [Example 149] 7.37

Cn1cc(NC(=O)c2cnn3cccnc23)c(-c2cc3c(cc2OC(F)F)NC(=O)CS3)n1 [Example 90] , same question. 8.30

Again, but for CC1CSc2cc(-c3nn(CC(=O)N4CCCCC4)cc3NC(=O)c3cnn4cccnc34)c(OC(F)F)cc2N1 (single isomer, unassigned) [Example 107] 7.96

Proceed to CNC(=O)Cn1cc(NC(=O)c2cnn3cccnc23)c(-c2cc3c(cc2OC(F)F)NCCS3)n1 [Example 117] 7.62

Same question for CC1Sc2cc(-c3nn(C)cc3NC(=O)c3cnn4cccnc34)c(OC(F)F)cc2NC1=O (single isomer, unassigned) [Example 97] please. 8.15

Can you check CC1(C)CNc2cc(OC(F)F)c(-c3n[nH]cc3NC(=O)c3cnn4cccnc34)cc2S1 [Example 110] next? 8.00

Same read-out for O=C(O)Cn1cc(NC(=O)c2cnn3cccnc23)c(-c2cc3ccccc3cc2OC(F)F)n1 [Example 2] ? 6.89

And the next one, O=C(Nc1c[nH]nc1-c1cc2c(cc1OC(F)F)CCO2)c1cnn2cccnc12 [Example 16] ? 8.30

Do the same for NCCn1cc(NC(=O)c2cnn3cccnc23)c(-c2cc3c(cc2OC(F)F)NCCS3)n1 [Example 13] please 7.70
